For each entry below, report its IC50 value.
target_or_test_system: p110δ/p85 (Homo sapiens, UniProt O00329)
Sequence (O00329 whole entry, species assumed): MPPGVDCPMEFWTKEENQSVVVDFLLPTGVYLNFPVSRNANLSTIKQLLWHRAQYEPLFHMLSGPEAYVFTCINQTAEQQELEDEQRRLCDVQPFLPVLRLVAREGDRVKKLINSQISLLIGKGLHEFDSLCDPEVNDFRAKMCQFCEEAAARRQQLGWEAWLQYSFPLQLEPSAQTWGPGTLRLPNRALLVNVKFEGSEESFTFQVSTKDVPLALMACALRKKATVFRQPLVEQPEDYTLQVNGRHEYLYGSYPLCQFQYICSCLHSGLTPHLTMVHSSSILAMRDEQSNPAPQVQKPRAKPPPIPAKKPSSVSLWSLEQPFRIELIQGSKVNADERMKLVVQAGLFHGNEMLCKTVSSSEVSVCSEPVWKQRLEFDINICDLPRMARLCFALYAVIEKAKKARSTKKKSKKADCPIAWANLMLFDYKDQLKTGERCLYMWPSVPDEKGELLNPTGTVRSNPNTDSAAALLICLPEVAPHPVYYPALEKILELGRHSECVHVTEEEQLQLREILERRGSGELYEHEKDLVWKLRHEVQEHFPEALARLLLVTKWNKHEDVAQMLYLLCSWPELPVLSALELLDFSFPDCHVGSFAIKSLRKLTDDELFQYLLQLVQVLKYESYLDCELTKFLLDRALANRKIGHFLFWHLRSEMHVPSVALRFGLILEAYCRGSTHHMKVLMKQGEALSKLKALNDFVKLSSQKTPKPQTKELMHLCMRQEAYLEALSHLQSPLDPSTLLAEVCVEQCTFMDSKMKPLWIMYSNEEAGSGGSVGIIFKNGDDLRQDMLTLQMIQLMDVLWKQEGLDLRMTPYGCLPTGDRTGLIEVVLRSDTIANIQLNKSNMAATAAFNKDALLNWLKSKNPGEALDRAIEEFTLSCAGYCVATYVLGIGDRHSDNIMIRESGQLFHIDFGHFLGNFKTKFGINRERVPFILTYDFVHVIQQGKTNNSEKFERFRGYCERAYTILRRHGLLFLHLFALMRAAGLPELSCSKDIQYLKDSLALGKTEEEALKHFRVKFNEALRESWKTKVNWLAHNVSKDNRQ
Sequence (P27986 whole entry partner, species assumed): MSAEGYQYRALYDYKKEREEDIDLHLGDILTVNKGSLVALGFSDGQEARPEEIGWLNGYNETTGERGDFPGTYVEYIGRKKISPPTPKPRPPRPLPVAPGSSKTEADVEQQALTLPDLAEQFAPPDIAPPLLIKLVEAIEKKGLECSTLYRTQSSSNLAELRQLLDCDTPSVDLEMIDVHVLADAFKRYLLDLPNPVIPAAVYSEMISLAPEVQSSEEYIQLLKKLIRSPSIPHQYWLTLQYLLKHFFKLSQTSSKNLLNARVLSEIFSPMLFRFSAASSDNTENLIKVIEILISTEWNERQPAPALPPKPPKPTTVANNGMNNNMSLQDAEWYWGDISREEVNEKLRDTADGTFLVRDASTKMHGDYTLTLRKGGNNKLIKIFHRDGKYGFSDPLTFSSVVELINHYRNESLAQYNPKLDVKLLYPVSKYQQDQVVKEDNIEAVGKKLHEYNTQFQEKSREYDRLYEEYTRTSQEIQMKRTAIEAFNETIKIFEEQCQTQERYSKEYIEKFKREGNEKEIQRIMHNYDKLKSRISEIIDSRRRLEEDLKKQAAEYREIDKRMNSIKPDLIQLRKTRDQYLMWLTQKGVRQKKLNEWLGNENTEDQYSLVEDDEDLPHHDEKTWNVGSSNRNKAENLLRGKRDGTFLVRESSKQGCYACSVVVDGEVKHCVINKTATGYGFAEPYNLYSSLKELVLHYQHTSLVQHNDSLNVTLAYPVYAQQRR
test_details: Inhibition of isolated enzyme (lipid kinase assay, [γ33P]ATP, TLC)
settings: recombinant enzyme, 100 μM ATP, 1 hr room temperature, average of two experiments
Description: Compounds were evaluated for their ability to inhibit Class I PI 3-kinase enzymes p110δ/p85, p110α/p85, and p110β/p85. […] The TLC plates were then dried at room temperature and quantified using a phosphorimager (StormImager, Amersham). […]

Can you look up the measured IC50 of COc1cccc2c1nc(C(F)F)n2-c1nc(-c2cccnc2)nc(N2CCOCC2)n1 for me?
< 100 nM

Can you look up the measured IC50 of COc1cccc2c1nc(C(F)F)n2-c1nc(N2CCOCC2)c2ncn(-c3cncnc3)c2n1 for me?
< 100 nM

Can you look up the measured IC50 of FC(F)c1nc2ccccc2n1-c1nc(NCc2ccccc2)nc(N2CCOCC2)n1 for me?
< 100 nM

Can you look up the measured IC50 of COc1cccc2c1nc(C(F)F)n2-c1nc(-c2cncnc2)cc(N2CCOCC2)n1 for me?
100 to 1000 nM
